Cited source: ChEMBL document CHEMBL5365438

Target: Protein deacetylase HDAC6 (Homo sapiens, UniProt Q9UBN7)
Sequence (Q9UBN7 whole entry): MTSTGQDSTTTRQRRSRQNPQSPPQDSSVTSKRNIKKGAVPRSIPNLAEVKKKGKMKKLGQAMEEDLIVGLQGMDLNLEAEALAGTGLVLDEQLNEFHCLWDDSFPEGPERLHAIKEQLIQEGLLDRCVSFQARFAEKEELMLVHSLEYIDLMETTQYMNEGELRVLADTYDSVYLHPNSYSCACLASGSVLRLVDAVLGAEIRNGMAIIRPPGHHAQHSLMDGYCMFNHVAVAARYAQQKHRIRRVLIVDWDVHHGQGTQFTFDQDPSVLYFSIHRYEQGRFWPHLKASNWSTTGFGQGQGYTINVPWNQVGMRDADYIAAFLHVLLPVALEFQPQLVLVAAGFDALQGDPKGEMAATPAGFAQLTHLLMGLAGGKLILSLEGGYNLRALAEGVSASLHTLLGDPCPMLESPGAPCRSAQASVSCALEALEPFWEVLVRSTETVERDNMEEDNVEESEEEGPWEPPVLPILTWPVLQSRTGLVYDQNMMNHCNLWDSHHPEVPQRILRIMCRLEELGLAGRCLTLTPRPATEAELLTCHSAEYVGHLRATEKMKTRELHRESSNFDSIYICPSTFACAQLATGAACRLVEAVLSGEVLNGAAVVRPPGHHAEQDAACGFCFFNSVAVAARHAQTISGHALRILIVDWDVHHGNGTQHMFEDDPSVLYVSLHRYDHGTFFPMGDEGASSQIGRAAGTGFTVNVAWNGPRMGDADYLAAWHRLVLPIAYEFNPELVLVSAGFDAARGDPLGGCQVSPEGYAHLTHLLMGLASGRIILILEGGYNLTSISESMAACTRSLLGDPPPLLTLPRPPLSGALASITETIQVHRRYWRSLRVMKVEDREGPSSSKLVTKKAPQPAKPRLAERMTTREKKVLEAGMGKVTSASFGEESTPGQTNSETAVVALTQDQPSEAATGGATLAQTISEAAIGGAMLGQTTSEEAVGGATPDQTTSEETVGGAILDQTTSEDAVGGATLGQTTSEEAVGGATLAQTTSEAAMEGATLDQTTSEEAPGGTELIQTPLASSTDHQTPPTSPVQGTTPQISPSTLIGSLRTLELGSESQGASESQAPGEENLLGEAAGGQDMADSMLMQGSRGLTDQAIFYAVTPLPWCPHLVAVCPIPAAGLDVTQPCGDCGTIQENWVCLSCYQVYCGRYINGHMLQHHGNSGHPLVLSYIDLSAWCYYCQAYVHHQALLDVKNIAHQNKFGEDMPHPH
Property: pIC50; scope: individual compounds
Conceptually, pIC50 converts a concentration in mol/L into minus its log10.

O=C(CCCCCN1C(=O)CC(c2ccccc2)S(=O)(=O)c2ccccc21)NO (racemic) :: 7.63

Next compound, please.
What measured pIC50 goes with O=C(CCCCCN1C(=O)CC(c2ccc(Cl)c(Cl)c2)S(=O)(=O)c2ccccc21)NO (racemic) ?
7.91
